# System: EKVX NSCLC
# Assay: NCI-60 one-dose screen, 48 h (100 = growth as untreated, 0 = no growth, -100 = all killed)
# Conditions Used: 10 µM unless noted
About 83,000 compounds went through this panel and 20% of them were active in at least one assay; those are over-represented in the sample as a whole.
Threshold check on growth: strictly below 50% is Criterion met; on or above 50% is Criterion not met.

Reference set, count: 3
{"columns": ["Smiles", "Label Class"],
 "data": [
  ["COc1ccc(Cc2nc(C#N)c(N3CCN(c4ccc(F)cc4)CC3)o2)cc1", "Criterion not met"],
  ["C=C1C(=O)O[C@H]2[C@H]1CC/C(COC(=O)c1cccnc1N)=C\\CC[C@@]1(C)O[C@@H]21", "Criterion met"],
  ["COc1ccc2nc3nc4ccc[nH]c4cc3c2c1", "Criterion not met"]
]}

Problem: Criterion: growth strictly below 50%. Is it met by `Cc1cnc(-c2ccc(-c3ccc(NC(=O)Nc4c(F)cc(F)cc4F)cc3F)c3c2C(=O)NC3)[nH]1` ?
Result: Criterion not met

Problem: Entry to check: `Nc1c(C(=O)Nc2ccccn2)sc2nc3c(cc12)CCCC3`
Result: Criterion not met

----------
# System: M14 melanoma
# Assay: NCI-60 one-dose screen, 48 h (100 = growth as untreated, 0 = no growth, -100 = all killed)
# Conditions Used: 10 µM unless noted
About 83,000 compounds went through this panel and 20% of them were active in at least one assay; those are over-represented in the sample as a whole.
Provide the recorded growth for the entries that follow.
One number for each entry, in %.

{"columns": ["Molecule", "Measured Attribute", "Measured"],
 "data": [
  ["OCCNc1nc(NCCO)nc(Nc2ccc(C3=NN(c4cc(Cl)cc(Cl)c4)C(c4ccccc4)C3)cc2)n1 (stereo not given)", "growth", 46.2],
  ["N#Cc1c(-c2ccc(F)cc2)nc(N=Nc2c(O)[nH]c3ccc(Cl)cc23)nc1N1CCOCC1", "growth", 51.5],
  ["O=C1Nc2ccccc2C12C=C(c1ccccc1)Nc1c2c(-c2ccccc2)nn1-c1ccccc1 (stereo not given)", "growth", 58.2],
  ["O=C1[C@@H](OS(=O)(=O)CC(F)(F)F)[C@H](c2ccc(F)cn2)N1c1cc2c3ccccc3ccc2c2ccccc12", "growth", 72.9],
  ["C=CCn1c(SCC(=O)Nc2ccc(C(=O)/C=C/c3cc(OC)c(OC)c(OC)c3)cc2)nnc1-c1ccccc1", "growth", 86.9],
  ["C=C(C)[C@@H]1CC[C@]2(C(=O)N=C=S)CC[C@]3(C)[C@H](CC[C@@H]4[C@@]5(C)CCC(=O)C(C)(C)[C@@H]5CC[C@]43C)[C@@H]12", "growth", 39.3],
  ["Cc1ccn2c3c(c(C(=O)O)c2c1)C(=O)c1ccccc1C3=O", "growth", -43.5],
  ["CC(C)(C)c1ccc2oc(=O)n(SC(Cl)(Cl)Cl)c2c1", "growth", 94.4]
]}

Dear colleague, could you please provide growth for the molecules listed below?
1. O=C1CCC23OC(C(O)c4ccccc4N12)C1C(Br)=NOC13 (stereo not given)
2. CC(/C=C/c1ccccc1)=N/NC(=O)c1ccncc1
3. O=C(Nc1cc(Br)ccn1)c1cc2cc(Nc3nc(-c4ccccc4)nc4ccccc34)ccc2oc1=O
4. COC(=O)c1ccc2c(c1)NC(=O)[C@@H]1CCCN21
5. COc1ccc(OCC(=O)OC(C)C)cc1
6. CCCCn1c(=O)c(/C=C/C(=O)/C=C/c2ccc(O)c(OC)c2)cc2ccc(Cl)cc21
7. Cc1c(Cl)cccc1NC(=O)c1sc2nc3c(cc2c1N)CCCCC3
8. COc1ccc(C(C)c2cc(OC)c(OC)c(OC)c2)cc1 (stereo not given)

Result:
104
101
102
102
98.6
5.1
2.84
7.54

Go through the items and report each one's growth.
1. CCCn1cc(/C=N\N=C2\C(=O)Nc3ccc(C)cc32)c2ccccc21
2. CCSc1nc(Cl)c(C#N)c(-c2ccc(F)cc2)n1
3. COc1ccc(/C=C(/C(=O)N2CCN(Cc3ccccc3)CC2)c2cc(OC)c(OC)c(OC)c2)cc1O
4. COc1ccc(NC(=O)Nc2ccc(Nc3nc(C)cc(Nc4ccc(C)cc4)n3)cc2)cc1

Result:
56.3
82.3
38
-82.9
